Each item that follows carries a reported glycan array binding signal (z-score).
- system_name: Neu5Ac(a2-6)Gal(b1-4)GlcNAc(b1-2)Man(a1-3)[Man(a1-6)]Man(b1-4)GlcNAc(b1-4)GlcNAc
- experiment_notes: glycan array binding signal (z-score within array); higher = stronger binding
- test_parameters: glycan notation: IUPAC condensed, linker removed
The entries come from a sample that favours the strongest signals as a whole.
property_measured: glycan array binding signal (z-score)

binder	result_value
MXA PilAct-eGFP (Myxococcus xanthus), Q59589 (protein) MRVSRFNPRNRGFTLIELMIVVAIIGILAAIAIPNFIKFQARSKQSEAKTNLKALYTAQKSFFSEKDRYSDFANEIGFAPERGNRYGYRVSAAAGDCEVRNAADLPVPAAGVPCISNDSFRFGANSAIDDPTPVVARFVPQGAAGWNTTLGVQPTIADCPNCNFFAGARGNADNEATFDDWVIAGFEGSGQVGPCSEAGNVASGTPYNTRNDVACDGAAQ	3.09
ERGIC1-EDTA (Homo sapiens), Q969X5 (protein) MKFLVNVALVFMVVYISYIYAAAHMHHHHHHDYDIPTTENLYFQGSEVVNELYVDDPDKDSGGKIDVSLNISLPNLHCELVGLDIQDEMGRHEVGHIDNSMKIPLNNGAGCRFEGQFSINKVPGNFHVSTHSATAQPQNPDMTHVIHKLSFGDTLQVQNIHGAFNALGGADRLTSNPLASHDYILKIVPTVYEDKSGKQRYSYQYTVANKEYVAYSHTGRIIPAIWFRYDLSPITVKYTE	1.69
UEA-I (Ulex europaeus), P22972 (protein) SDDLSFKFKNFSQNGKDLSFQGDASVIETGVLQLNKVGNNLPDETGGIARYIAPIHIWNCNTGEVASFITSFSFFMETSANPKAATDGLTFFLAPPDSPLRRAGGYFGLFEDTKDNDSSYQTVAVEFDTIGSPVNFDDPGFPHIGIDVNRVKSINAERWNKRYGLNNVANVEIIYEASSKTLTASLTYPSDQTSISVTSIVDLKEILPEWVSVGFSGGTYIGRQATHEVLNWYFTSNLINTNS	-0.216
